Please respond with reported PBM binding z-score for every item in the list.
- Test system: PPARg DBDmut IVT, anti-PPARg (DBD mutation: PPARg1 K132A/R137A, NR concentration 270 nM)
- test-method-notes: PBM binding z-score (relative to random genomic background probes); higher = stronger binding; sequences stand for … in GC…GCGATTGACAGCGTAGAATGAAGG

Below, 2 sequences whose answers are already recorded.
CGAACCAGGTCATTGACAGGACAGTGAATAGTAA	0.405
CGGCCAAGGTCAGAGAGGTCAGTGAATGCCGAGT	-1.36

Kindly give each listed record's PBM binding z-score.
1. CCTAGTTGGTCAGGAGTTCACACACCGGATATGA
2. CCTTACGGGTCACTGACAGGTGATAGCATTTGGA
3. GCTTGCGGGTCAAAGGTTATAGCATGAATAGAAT
4. TCTTATAGGTAAATGCTAGGTGAAAGTCCGATCT
5. GCTGCTAGGTCAACTGATGGTCAGCTCAAGCTCG
6. TAGCCTAGGTCAATCAGGGGCCAGTATAGAAAGC
7. CCTACTGGGCCATCAGGTCTTTGATATCAACGTT
8. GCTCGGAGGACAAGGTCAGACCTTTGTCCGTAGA

[0.284, -0.737, 0.0418, 1.13, -0.768, 0.00211, -0.285, -0.216]

* * *

- Tested on: VDR:RXRa (NR concentration 270 nM, RXRa partner concentration 90 nM)
- test-method-notes: PBM binding z-score (relative to random genomic background probes); higher = stronger binding; sequences stand for … in GC…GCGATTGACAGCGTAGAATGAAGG
Quick rule for you: PBM binding z-score at 0.7 or higher means Yes, lower means No.

Consider the worked cases shown below.
GCTGCTAGGTCAGGTCGGTCAGCTAACGGGTACG	Yes
ATCTCTAGGCAAGACTCAGTTCAGTGAAGAACGC	No
CCTAGTTGATCAGGAGGTCACACACCGGATATGA	Yes
CCAGACAGGTGAGAAGGAAACTCAGCCTCGATTA	No
AGTCAAAGTTCAGTACGAGGTAACGTAAAGCACG	Yes
CCGACCGGGGCATAAGGTTACCATAAGCCAGCCC	No
AGAACGAGGGCAATGAGCTGATAGCACGGGTGGC	No
TCGAGTATGTTAGGGGCATTCAGAATGGCGTCGA	Yes
GCAGACAGGTGAAACGCAGGTAACCCAGGGTGGC	No
ATATGTAGGTTAGCTGGGGTCACTCAGACTAGGC	Yes

Turning now to a further record.
Can `TCAGACAGGTGAAGGTAAATCAGGTACGCAGTCG` be said to have PBM binding z-score at or above 0.7?
Yes

* * *

Please respond with reported PBM binding z-score for every item in the list.
- System: PPARg:RXRa IVT, anti-PPARg (NR concentration 270 nM, RXRa partner concentration 90 nM)
- test-method-notes: PBM binding z-score (relative to random genomic background probes); higher = stronger binding; sequences stand for … in GC…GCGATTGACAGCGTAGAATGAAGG
Answers are plain numbers.

Below, 2 sequences whose answers are already recorded.
TCAGACAGGTGAAGGTAATTCAGGTACGCAGTCG	1.13
CTCGAAAGGTCGGTTGACGTGAGTATACGGATAA	0.68

Kindly give each listed record's PBM binding z-score.
1. CAAACTAGGTCACAGAGGTCAAAGTGCGTGCGTA
2. GAAACGAGGGCATTCGAGTTGATAGCATGGCGAT
3. ATCTCTAGGTAACCAAGTTTAGTGAATGCCGAAC

1: 9.04; 2: 3.42; 3: 2.79
